tested-system: ADA in mouse erythrocytes (Mus musculus)
method: Inhibition of ADA-catalyzed deamination in mouse erythrocytes
Format: biochemical
conditions: Ki, mouse erythrocytes, substrate 2′-deoxyadenosine, Dixon plot
quantity-kind: Ki (µM)
One number for each entry, in µM.

(Q) Report Ki, nothing else, for this compound: C[C@@H]1O[C@@H](O[C@H]2[C@H](Oc3cc(O)c4c(c3)O[C@H](c3ccc(O)cc3)CC4=O)O[C@H](CO)[C@@H](O)[C@@H]2O)[C@H](O)[C@H](O)[C@H]1O [Naringin, naringin]
(A) 197

###

tested-system: ADA in mouse erythrocytes (Mus musculus, UniProt P03958)
Sequence (P03958 1-352): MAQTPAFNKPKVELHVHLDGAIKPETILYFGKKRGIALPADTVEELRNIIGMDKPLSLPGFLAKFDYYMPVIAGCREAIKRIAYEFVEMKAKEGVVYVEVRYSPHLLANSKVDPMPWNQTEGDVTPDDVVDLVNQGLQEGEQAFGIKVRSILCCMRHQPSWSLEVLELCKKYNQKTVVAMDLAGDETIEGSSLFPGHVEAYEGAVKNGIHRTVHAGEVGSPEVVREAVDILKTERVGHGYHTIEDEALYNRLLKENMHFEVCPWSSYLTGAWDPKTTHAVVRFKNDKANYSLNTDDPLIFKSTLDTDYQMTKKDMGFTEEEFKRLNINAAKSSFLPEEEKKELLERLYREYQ
method: Inhibition of ADA-catalyzed deamination in mouse erythrocytes
Type: biochemical
conditions: read-out: inhibition of the enzyme activity (deamination of cordycepin)
quantity-kind: inhibition at 100 µM

[[record]]
chemical_structure = "C[C@@H]1O[C@@H](O[C@H]2[C@H](Oc3cc(O)c4c(c3)O[C@H](c3ccc(O)cc3)CC4=O)O[C@H](CO)[C@@H](O)[C@@H]2O)[C@H](O)[C@H](O)[C@H]1O"
tested_system = "ADA in mouse erythrocytes (Mus musculus, UniProt P03958)"
result = "20%"

[[record]]
chemical_structure = "O=c1c(O)c(-c2ccc(O)cc2)oc2cc(O)cc(O)c12"
tested_system = "ADA in mouse erythrocytes (Mus musculus, UniProt P03958)"
result = "0 to 10%"

[[record]]
chemical_structure = "O=c1c(O)c(-c2ccc(O)c(O)c2)oc2cc(O)cc(O)c12"
tested_system = "ADA in mouse erythrocytes (Mus musculus, UniProt P03958)"
result = "0 to 10%"

[[record]]
chemical_structure = "O=C1C[C@@H](c2ccc(O)cc2)Oc2cc(O)cc(O)c21"
tested_system = "ADA in mouse erythrocytes (Mus musculus, UniProt P03958)"
result = "0 to 10%"


Then this molecule:
(Q) State inhibition at 100 µM (ADA in mouse erythrocytes (Mus musculus, UniProt P03958)) of O=c1c(O)c(-c2cc(O)c(O)c(O)c2)oc2cc(O)cc(O)c12 .
(A) 0 to 10%

###

tested-system: ADA in mouse erythrocytes (Mus musculus, UniProt P03958)
Sequence (P03958 1-352): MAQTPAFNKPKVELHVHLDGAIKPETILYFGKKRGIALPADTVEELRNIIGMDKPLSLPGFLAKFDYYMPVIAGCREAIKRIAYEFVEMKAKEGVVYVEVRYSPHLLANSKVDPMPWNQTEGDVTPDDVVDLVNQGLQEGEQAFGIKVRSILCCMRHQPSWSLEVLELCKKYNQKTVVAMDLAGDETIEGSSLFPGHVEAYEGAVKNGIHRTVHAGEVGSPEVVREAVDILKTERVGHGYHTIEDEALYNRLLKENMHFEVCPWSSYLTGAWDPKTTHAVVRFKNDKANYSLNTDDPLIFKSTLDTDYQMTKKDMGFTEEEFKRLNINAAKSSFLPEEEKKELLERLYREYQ
method: Inhibition of ADA-catalyzed deamination in mouse erythrocytes
Assay type: biochemical
conditions: Ki, mouse erythrocytes, substrate adenosine, Dixon plot
quantity-kind: Ki (µM)
Answers are plain numbers, in µM.

(Q) Report Ki, nothing else, for this molecule: C[C@@H]1O[C@@H](O[C@H]2[C@H](Oc3cc(O)c4c(c3)O[C@H](c3ccc(O)cc3)CC4=O)O[C@H](CO)[C@@H](O)[C@@H]2O)[C@H](O)[C@H](O)[C@H]1O [Naringin, naringin]
(A) 371
